Numbers sourced from patent US20120090043A1.

- Test system: HIV-1 LTR promoter transactivation by HIV-1 Tat
- protocol-text: Transactivation assay, HIV-1 LTR luciferase reporter with HIV-1 Tat
- Format: cell-based
- assay-conditions: HEK293 cells co-transfected with pHIV1LTR-Luc, HIV-1 Tat and the human ORF; relative luciferase activity 24 h post-transfection; positive if >=2 or <=0.5 and p<0.05
reported-endpoint: HIV_LTR transactiv. (fold change)
Answers are plain numbers, in fold change.

[[record]]
molecule = "MLLT11: human host interactor protein, Gene ID 10962, expressed from transfected ORF vector (protein) MRDPVSSQYSSFLFWRMPIPELDLSELEGLGLSDTATYKVKDSSVGKMIGQATAADQEKNPEGDGLLEYSTFNFWRAPIASIHSFELDLL"
unit_symbol = "fold change"
obs_value = 3.41

[[record]]
molecule = "C16orf33: human host interactor protein, Gene ID 79622, expressed from transfected ORF vector (protein) MDVFQEGLAMVVQDPLLCDLPIQVTLEEVNSQIALEYGQAMTVRVCKMDGEVMPVVVVQSATVLDLKKAIQRYVQLKQEREGGIQHISWSYVWRTYHLTSAGEKLTEDRKKLRDYGIRNRDEVSFIKKLRQK"
unit_symbol = "fold change"
obs_value = 2.50

[[record]]
molecule = "C20orf141: human host interactor protein, Gene ID 128653, expressed from transfected ORF vector (protein) MTRLCLPRPEAREDPIPVPPRGLGAGEGSGSPVRPPVSTWGPSWAQLLDSVLWLGALGLTIQAVFSTTGPALLLLLVSFLTFDLLHRPAGHTLPQRKLLTRGQSQGAGEGPGQQEALLLQMGTVSGQLSLQDALLLLLMGLGPLLRACGMPLTLLGLAFCLHPWA"
unit_symbol = "fold change"
obs_value = 0.35


### Prompt Answer with the recorded HIV_LTR transactiv. of LOC541468: human host interactor protein, Gene ID 541468, expressed from transfected ORF vector (protein) MEGTVESQTPDLRDVEGKVGRKTPEGLLRGLRGECELGTSGALLLPGASSTGHDLGDKIMALKMELAYLRAIDVKILQQLVTLNEGIEAVRWLLEERGTLTSHCSSLTSSQYSLTGGSPGRSRRGSWDSLPDTSTTDRLDSVSIGSFLDTVAPSELDEQGPPGAPRSEMDWAKVIAGGERARTEVDVAATRLGSLRAVWKPPGERLQGGPPESPEDESAKLGFEAHWFWEQCQDDVTFL only.
### Response 2.38
